List of IC50 values.
- TARGET_OR_SYSTEM: Arf6 (Homo sapiens (Human))
- Sequence (P62330 14-175): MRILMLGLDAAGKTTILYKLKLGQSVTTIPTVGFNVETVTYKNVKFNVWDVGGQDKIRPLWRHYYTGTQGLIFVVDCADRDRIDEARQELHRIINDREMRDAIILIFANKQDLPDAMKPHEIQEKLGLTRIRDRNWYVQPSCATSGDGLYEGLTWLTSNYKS
- METHOD_NOTES: Fluorometric assay for Arf6 nucleotide exchange catalyzed by ARNO Sec7 domain (GTP-BODIPY FL)
- Type: biochemical
- PROTOCOL_CONDITIONS: 200 nM Arf6 assay; read-out: IC50 (μM) 200 nM Arf6
Quick reminder: number only, in µM, skip the unit.

Sample answers from the record:
INSERT INTO measurements (compound, unit, number) VALUES
  ('O=c1cc(Cc2cccnc2)[nH]c2c(-c3ccc(Cl)cc3)c(C(F)(F)F)nn12', 'µM', 17),
  ('O=c1cc(-c2ccc([N+](=O)[O-])cc2)[nH]c2c(-c3ccc(Cl)cc3)c(Cc3cccnc3)nn12', 'µM', 4.8),
  ('COc1ccc(-c2c(C)nn3c(=O)cc(-c4ccc([N+](=O)[O-])cc4)[nH]c23)cc1', 'µM', 17),
  ('O=[N+]([O-])c1ccc(C2=CC(O)n3nc(-c4cccc(Cl)c4)cc3N2)cc1 (centres unmarked)', 'µM', 10),
  ('O=c1c2c(-c3ccc(Cl)cc3)csc2[nH]c(=S)n1Cc1ccccc1', 'µM', 9.7);

Ask: So what's the measured IC50 for this one? O=c1cc(-c2ccc([N+](=O)[O-])cc2)[nH]c2c(-c3ccc(Cl)cc3)c(C(F)(F)F)nn12
Reply: 2.6

Ask: So what's the measured IC50 for this one? O=c1cc(-c2ccccc2)[nH]c2c(-c3ccccc3)c(Cc3ccccc3)nn12
Reply: 9.4

Ask: So what's the measured IC50 for this one? O=c1cc(Cc2ccccc2)[nH]c2c(-c3ccc(Cl)c(Cl)c3)c(C(F)(F)F)nn12
Reply: 1.6

====

List of IC50 values.
- TARGET_OR_SYSTEM: Arf6 (Homo sapiens (Human))
- METHOD_NOTES: Fluorometric assay for Arf6 nucleotide exchange catalyzed by ARNO Sec7 domain (GTP-BODIPY FL)
- Format: biochemical
- PROTOCOL_CONDITIONS: 20 nM Arf6 assay; read-out: IC50 (μM) 20 nM Arf6
Quick reminder: number only, in µM, skip the unit.

Sample answers from the record:
INSERT INTO results (compound, number) VALUES
  ('CC(C)(C)c1nn2c(=O)cc(-c3ccccn3)[nH]c2c1-c1ccc(Cl)cc1 [Compound 82]', 6),
  ('O=C(Nc1cc(Cl)c(-c2cccc3cccnc23)c(Cl)c1)c1cc(Cl)cc(Br)c1O [Compound 119]', 2.1),
  ('N#Cc1ccc(-c2cc(=O)n3nc(C4CCOCC4)c(-c4ccc(Cl)cc4)c3[nH]2)cc1 [Compound 112]', 20),
  ('Cc1nn2c(=O)cc(-c3ccc([N+](=O)[O-])cc3)[nH]c2c1-c1ccc(Cl)cc1Cl [Compound 76]', 4.5),
  ('O=c1cc(-c2ccc([N+](=O)[O-])cc2)[nH]c2c(-c3ccc(Cl)cc3)c(Cc3ccccc3)nn12 [Compound 38]', 1.8);

Ask: So what's the measured IC50 for this one? CCC(=O)Nc1cccc(-c2cc(=O)n3nc(C(F)(F)F)c(-c4ccc(Cl)cc4)c3[nH]2)c1 [Compound 61]
Reply: 3.3

Ask: So what's the measured IC50 for this one? CC(C)(C)c1nn2c(=O)cc(-c3ccccc3C#N)[nH]c2c1-c1ccc(Cl)cc1 [Compound 32]
Reply: 1.5

Ask: So what's the measured IC50 for this one? CS(=O)(=O)c1ccc(-c2cc(=O)n3nc(C4CC4)c(-c4ccc(Cl)cc4)c3[nH]2)cc1 [Compound 91]
Reply: 7.9

Ask: So what's the measured IC50 for this one? Cc1ccc(C(=O)OCc2cc(=O)n3cc(Br)ccc3n2)cn1 [Compound 130]
Reply: 9.9

Ask: So what's the measured IC50 for this one? O=c1c(Cl)c(-c2ccc([N+](=O)[O-])cc2)[nH]c2c(-c3ccc(Cl)cc3)c(C(F)(F)F)nn12 [Compound 10]
Reply: 0.88

Ask: So what's the measured IC50 for this one? CC(C)(C)c1nn2c(=O)cc(-c3cccc(S(C)(=O)=O)c3)[nH]c2c1-c1ccc(Cl)cc1 [Compound 87]
Reply: 6.7

Ask: So what's the measured IC50 for this one? Cc1nn2c(=O)cc(-c3ccc([N+](=O)[O-])cc3)[nH]c2c1-c1ccc(OC(F)(F)F)cc1 [Compound 101]
Reply: 13

Ask: So what's the measured IC50 for this one? Cc1ccc(-c2cccc(-c3cc(=O)n4nc(C(F)(F)F)c(-c5ccc(Cl)cc5)c4[nH]3)c2)cn1 [Compound 12]
Reply: 0.96

Ask: So what's the measured IC50 for this one? N#Cc1ccc(-c2cc(=O)n3nc(C(F)(F)F)c(-c4ccc(Cl)cc4)c3[nH]2)cc1 [Compound 40]
Reply: 1.9

Ask: So what's the measured IC50 for this one? Cc1nn2c(=O)cc(-c3ccc([N+](=O)[O-])cc3)[nH]c2c1-c1ccc(Oc2ccccc2)cc1 [Compound 30]
Reply: 1.5
